Cited source for all entries: patent US20250026849A1

// ELISA_avg lookup, one value per entry
Target: T1, BCMA (Homo sapiens (Human), UniProt Q02223 1-54, limits assumed)
T1 sequence: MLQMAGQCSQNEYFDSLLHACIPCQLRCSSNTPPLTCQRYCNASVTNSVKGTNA
Assay: ELISA, format not described
Set-up: unit not given here

# binder, ELISA_avg
measured = [
    ("D-domain SEQ ID NO: 312 (designed binder) MGSWTYFKFGLAHIKDSLEALGGSEAELADFEQWIAMFEQDLQVYKGKGNPEVEALRKEAAAIRDELQAYRHN", 17),
    ("D-domain SEQ ID NO: 245 (designed binder) MGSWYGFKYRLAVIKWYLEALGGSEAELASFEKYIAQFEHDLQAYKGKGNPEVEALRKEAAAIRDELQAYRHN", 7.63),
    ("D-domain SEQ ID NO: 223 (designed binder) MGSWGEFNGRLGAIRERLQALGGSEAELAAFEKEIAAFESELQAYKGKGNPEVEFLRAYAASIRAVLQAYRHN", 4.95),
]
